- Test system: MM415
- ASSAY_TEXT: Anti-proliferative activity, MTS viability assay
- Assay type: cell-based
- TEST_CONTEXT: 72 hours exposure, read-out: IC50 Melanoma MM415
MEASURED_PROPERTY: IC50 (µM)
// note: answer is a bare numeric in µM

q: Under MM415: IC50 value of `Cc1c(C)n(CCCN2CCN(C)CC2)c2ccc(Oc3cccc(C(=O)N4CCN(CCc5ccc(F)cc5)CC4)c3)cc12` ?
a: 4.67

###

- Tested on: SK-N-SH
- ASSAY_TEXT: Anti-proliferative activity, cell-titre luminescent viability assay
- Type: cell-based
- TEST_CONTEXT: Homo sapiens, SK-N-SH, 72 h, 0.03, 0.3, 3 and 30 μM, linear regression of semi-log plots, read-out: IC50 Neuroblastoma SK-N-SH
MEASURED_PROPERTY: pIC50
Field pIC50 (float): negative decimal logarithm of the concentration in molar.

// below: answered compounds
Cc1c(C)n(CCCN2CCN(C)CC2)c2ccc(Cc3ccc(C(=O)N4CCN(CCc5cccc(F)c5)CC4)cc3)cc12 :: 5.70
Cc1c(C)n(CCCN2CCN(C)CC2)c2ccc(Nc3cccc(C(=O)N4CCN(CCc5cccc(F)c5)CC4)c3)cc12 :: 5.85
COc1ccc(CCN2CCN(C(=O)c3ccc(Cc4ccc5c(c4)c(C)c(C)n5CCCN4CCN(C)CC4)cc3)CC2)cc1 :: 5.64
Cc1c(C)n(CCCN2CCN(C)CC2)c2ccc(Cc3cccc(C(=O)N4CCN(CCc5ccc6c(c5)OCO6)CC4)c3)cc12 :: 5.68
COc1cccc(CCN2CCN(C(=O)c3ccc(Nc4ccc5c(c4)c(C)c(C)n5CCCN4CCN(C)CC4)cc3)CC2)c1 :: 5.55
COc1cccc(CCN2CCN(C(=O)c3cccc(Cc4ccc5c(c4)c(C)c(C)n5CCCN4CCN(C)CC4)c3)CC2)c1 :: 5.59
Cc1c(C)n(CCCN2CCN(C)CC2)c2ccc(Cc3cccc(C(=O)N4CCN(CCc5ccc(F)cc5)CC4)c3)cc12 :: 5.51
COc1ccc(CCN2CCN(C(=O)c3cccc(Oc4ccc5c(c4)c(C)c(C)n5CCCN4CCN(C)CC4)c3)CC2)cc1 :: 5.77
COc1ccc(CCN2CCN(C(=O)c3ccc(Nc4ccc5c(c4)c(C)c(C)n5CCCN4CCN(C)CC4)cc3)CC2)cc1 :: 5.64
COc1cccc(CCN2CCN(C(=O)c3cccc(Nc4ccc5c(c4)c(C)c(C)n5CCCN4CCN(C)CC4)c3)CC2)c1 :: 5.35

q: Could you share which pIC50 value was measured for `Cc1c(C)n(CCCN2CCN(C)CC2)c2ccc(Oc3cccc(C(=O)N4CCN(CCc5ccc(F)cc5)CC4)c3)cc12` ?
a: 5.85

q: Also, `Cc1c(C)n(CCCN2CCN(C)CC2)c2ccc(Nc3ccc(C(=O)N4CCN(CCc5ccc(F)cc5)CC4)cc3)cc12` please.
a: 5.47

q: Also `Cc1c(C)n(CCCN2CCN(C)CC2)c2ccc(Nc3cccc(C(=O)N4CCN(CCc5ccc(F)cc5)CC4)c3)cc12` , if possible.
a: 5.48

q: Please do the same for `Cc1c(C)n(CCCN2CCN(C)CC2)c2ccc(Cc3cccc(C(=O)N4CCN(CCc5ccccc5)CC4)c3)cc12` as well.
a: 5.43

q: Input `COc1ccc(CCN2CCN(C(=O)c3cccc(Nc4ccc5c(c4)c(C)c(C)n5CCCN4CCN(C)CC4)c3)CC2)cc1`
a: 5.89

q: Same lookup for `COc1cccc(CCN2CCN(C(=O)c3ccc(Cc4ccc5c(c4)c(C)c(C)n5CCCN4CCN(C)CC4)cc3)CC2)c1` , please.
a: 5.68

q: Moving on to the next compound: `Cc1c(C)n(CCCN2CCN(C)CC2)c2ccc(Oc3cccc(C(=O)N4CCN(CCc5ccccc5)CC4)c3)cc12`
a: 5.74

q: Next entry: `Cc1c(C)n(CCCN2CCN(C)CC2)c2ccc(Cc3ccc(C(=O)N4CCN(CCc5ccccc5)CC4)cc3)cc12`
a: 5.85
